- TESTED_SYSTEM: dopaminergic receptors (Rattus norvegicus)
- Construct: The striated bodies removed from the brains of 6 male rats; from tissue; host or cells: rat striatum (striated bodies), membrane preparation
- Sequence (P61169 whole entry): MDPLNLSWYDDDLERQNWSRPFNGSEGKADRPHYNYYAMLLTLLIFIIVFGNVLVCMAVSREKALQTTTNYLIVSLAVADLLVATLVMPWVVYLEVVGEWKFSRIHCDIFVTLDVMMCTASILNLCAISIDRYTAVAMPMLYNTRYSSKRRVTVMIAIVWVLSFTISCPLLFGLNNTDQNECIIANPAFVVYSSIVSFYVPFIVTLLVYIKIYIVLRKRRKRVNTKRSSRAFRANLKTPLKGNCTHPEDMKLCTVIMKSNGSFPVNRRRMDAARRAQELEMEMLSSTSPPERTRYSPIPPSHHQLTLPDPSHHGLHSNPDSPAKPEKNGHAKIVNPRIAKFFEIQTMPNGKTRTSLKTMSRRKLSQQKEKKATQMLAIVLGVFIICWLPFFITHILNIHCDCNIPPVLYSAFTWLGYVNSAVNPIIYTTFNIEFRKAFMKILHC
- PROTOCOL_TEXT: Affinity for the dopaminergic receptors (displacement of 3H spiroperidol, striated bodies)
- Assay type: binding, rats
- CONDITION_SET: rat striated bodies, 3H spiroperidol, 20 minutes at 37° C., pH 7.3; read-out: IC50 (displacement of 50% of the specific radio-activity fixed on the receptor)
MEASURED_ENDPOINT: pIC50
Give bare numbers, as −log10 of the molar value.

Data request: Answer with the recorded pIC50 of O=c1[nH]c2cccc(C3CCCNC3)c2[nH]1 (stereo not shown) only.
Data returned: 6.76

----------
- TESTED_SYSTEM: dopaminergic receptors (Rattus norvegicus)
- Construct: The striated bodies removed from the brains of 6 male rats; from tissue; host or cells: rat striatum (striated bodies), membrane preparation
- PROTOCOL_TEXT: Affinity for the dopaminergic receptors (displacement of 3H spiroperidol, striated bodies)
- Type: binding, rats
MEASURED_ENDPOINT: IC50 (nM)
Answers are plain numbers, in nM.

Data request: Answer with the recorded IC50 of Br.O=c1[nH]c2c(O)ccc(C3CCCNC3)c2[nH]1 (stereo not shown) [Example 4, hydrobromide] only.
Data returned: 300

Each recorded value in this set is attributed to patent US4831043A.
